Catalogue of ECL signal readings, one per entry.
Molecular target: T1, rHuman EGF R/Fc Chimera, CF (R&D Systems Cat#344-ER) (human, UniProt P00533 25-645)
T1 construct: Bought recombinant Fc chimera; also called epidermal growth factor receptor; Fc part of the bought chimera not given
Assay: ECL multispot (MSD), antigen spotted, Fab in solution;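 further: purified Fab incubated 1 h at 20 °C on antigen-spotted wells, bound Fab detected via TAG detection antibody, ECL compared with each well's blank, ratio of 4 or above scored as hit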
test_readout: ECL signal

binder	test_readout	val
Fab VH1-46_IGHD6-6*01_IGHJ1*01 S102A/S103P/S104F/H111F (APFF) & L6_IGKJ1*01 S28W (Fab, V domains shown, Fab; VH cloned into Plasmid A (CH1, His6 and Flag tags) and VL into Plasmid C (kappa CL); also called APFF / S28W) VH: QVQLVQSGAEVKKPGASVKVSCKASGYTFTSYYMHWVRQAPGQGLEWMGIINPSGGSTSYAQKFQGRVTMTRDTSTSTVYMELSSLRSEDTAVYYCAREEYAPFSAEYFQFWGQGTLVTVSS VL: EIVLTQSPATLSLSPGERATLSCRASQWVSSYLAWYQQKPGQAPRLLIYDASNRATGIPARFSGSGSGTDFTLTISSLEPEDFAVYYCQQRSNWPPWTFGQGTKVEIKR	ECL signal	283
Fab VH1-46_IGHD6-6*01_IGHJ1*01 S102A/S103P/S104F/H111F (APFF) & L6_IGKJ1*01 S30D (Fab, V domains shown, Fab; VH cloned into Plasmid A (CH1, His6 and Flag tags) and VL into Plasmid C (kappa CL); also called APFF / S30D) VH: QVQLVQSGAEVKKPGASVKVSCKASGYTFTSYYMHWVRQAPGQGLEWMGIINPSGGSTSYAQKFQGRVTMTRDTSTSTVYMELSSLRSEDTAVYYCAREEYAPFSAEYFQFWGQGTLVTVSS VL: EIVLTQSPATLSLSPGERATLSCRASQSVDSYLAWYQQKPGQAPRLLIYDASNRATGIPARFSGSGSGTDFTLTISSLEPEDFAVYYCQQRSNWPPWTFGQGTKVEIKR	ECL signal	325
Fab VH1-46_IGHD6-6*01_IGHJ1*01 S102A/S103P/S104F/H111F (APFF) & L6_IGKJ1*01 S30C (Fab, V domains shown, Fab; VH cloned into Plasmid A (CH1, His6 and Flag tags) and VL into Plasmid C (kappa CL); also called APFF / S30C) VH: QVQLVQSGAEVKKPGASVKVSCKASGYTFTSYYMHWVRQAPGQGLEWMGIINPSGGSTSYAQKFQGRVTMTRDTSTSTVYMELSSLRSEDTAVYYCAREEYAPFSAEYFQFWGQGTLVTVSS VL: EIVLTQSPATLSLSPGERATLSCRASQSVCSYLAWYQQKPGQAPRLLIYDASNRATGIPARFSGSGSGTDFTLTISSLEPEDFAVYYCQQRSNWPPWTFGQGTKVEIKR	ECL signal	1190

Cited source for all entries: patent US20120316071A1
